pKi: −log10 of the molar value.
Recorded pKi values (Voltage-gated inwardly rectifying potassium channel KCNH2 (Homo sapiens)) are given below.

Compound	pKi
CC(C)(O)c1ccc(C(Cc2cc[n+]([O-])cc2)c2ccc(OC(F)F)c(OC3CCC3)c2)cn1 (stereo unspecified)	4.60
[O-][n+]1cccc(C[C@@H](c2ccc(OC(F)F)c(OC3CC3)c2)c2cnc(C(O)(C(F)(F)F)C(F)(F)F)s2)c1	4.21
CC(C)(O)c1ccc(C(Cc2cc[n+]([O-])cc2)c2ccc(OC(F)F)c(OC(F)F)c2)cn1 (single isomer, unassigned; (-))	4.64
[O-][n+]1cccc(C[C@H](c2ccc(OC(F)F)c(OC3CC3)c2)c2cnc(C(O)(C(F)(F)F)C(F)(F)F)s2)c1	4.41
CC(C)(O)c1ccc(C(Cc2ccc[n+]([O-])c2)c2ccc(OC(F)F)c(OC3CC3)c2)cn1 (single isomer, unassigned; (+)2d)	4.37
CC(C)(O)c1ccc(C(Cc2cc[n+]([O-])cc2)c2ccc(OC(F)F)c(OC3CCC3)c2)cc1 (racemic)	4.65
CC(C)(O)c1ccc(C(Cc2ccc[n+]([O-])c2)c2ccc(OC(F)F)c(OC3CC3)c2)cn1 (single isomer, unassigned; (-)2d)	4.35
CC(C)(O)c1ncc(C(Cc2cc[n+]([O-])cc2)c2ccc(OC(F)F)c(OC3CCC3)c2)s1 (stereo unspecified)	4.23
CC(O)(c1ccccc1)c1ccc(C(Cc2cc[n+]([O-])cc2)c2ccc(OC(F)F)c(OC(F)F)c2)cn1 (stereo unspecified)	5.93
[O-][n+]1ccc(CC(c2ccc(OC(F)F)c(OC3CCC3)c2)c2cnc(C(O)(C(F)(F)F)C(F)(F)F)s2)cc1 (racemic)	4.42
CC(C)(O)c1ccc(C(Cc2cc[n+]([O-])cc2)c2ccc(OC(F)F)c(OC(F)F)c2)cn1 (stereo in doubt; 2a(+))	4.60

###

Overview of recorded IC50 for various compounds
Target: 3',5'-cyclic-AMP phosphodiesterase 4A (Homo sapiens)
Sequence (P27815 whole entry, looked up, stated change not applied, the tested form may be a part, canonical isoform): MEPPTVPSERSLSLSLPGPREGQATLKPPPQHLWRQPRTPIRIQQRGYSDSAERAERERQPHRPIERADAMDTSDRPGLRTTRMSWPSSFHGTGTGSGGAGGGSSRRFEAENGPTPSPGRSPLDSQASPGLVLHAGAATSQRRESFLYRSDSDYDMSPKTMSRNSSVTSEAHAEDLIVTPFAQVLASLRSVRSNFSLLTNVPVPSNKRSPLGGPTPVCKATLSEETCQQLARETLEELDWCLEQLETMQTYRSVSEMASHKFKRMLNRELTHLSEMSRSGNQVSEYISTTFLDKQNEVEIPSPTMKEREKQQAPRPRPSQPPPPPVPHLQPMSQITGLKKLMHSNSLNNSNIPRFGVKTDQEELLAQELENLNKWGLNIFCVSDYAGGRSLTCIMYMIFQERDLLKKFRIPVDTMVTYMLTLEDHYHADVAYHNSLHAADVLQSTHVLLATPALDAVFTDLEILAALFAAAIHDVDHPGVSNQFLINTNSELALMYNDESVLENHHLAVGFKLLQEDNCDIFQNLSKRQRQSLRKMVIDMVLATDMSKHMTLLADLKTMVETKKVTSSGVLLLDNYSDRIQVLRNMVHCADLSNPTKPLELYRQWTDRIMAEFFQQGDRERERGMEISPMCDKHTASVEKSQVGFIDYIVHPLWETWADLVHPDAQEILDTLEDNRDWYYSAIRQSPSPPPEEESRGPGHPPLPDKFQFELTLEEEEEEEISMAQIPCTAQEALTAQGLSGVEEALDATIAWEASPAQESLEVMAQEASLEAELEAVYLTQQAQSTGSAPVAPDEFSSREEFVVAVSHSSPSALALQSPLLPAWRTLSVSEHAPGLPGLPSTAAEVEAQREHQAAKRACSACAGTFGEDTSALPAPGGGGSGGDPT
Assay: In vitro inhibitory activity was determined against human Phosphodiesterase 4 isoform using a construct representing the common region of spliced variants expressed as a GST-fusion protein in Sf 9 cells
Type: cell-based

Compound	Scale unit	IC50
CC(C)(O)c1ccc(C(Cc2ccc[n+]([O-])c2)c2ccc(OC(F)F)c(OC3CC3)c2)cn1 (single isomer, unassigned; (+)2d)	nM	2.1
CC(O)(c1ccccc1)c1ccc(C(Cc2cc[n+]([O-])cc2)c2ccc(OC(F)F)c(OC(F)F)c2)cn1 (stereo not given)	nM	2.1
COc1ccc([C@H](Cc2ccncc2)c2ccccc2)cc1OC1CCCC1	nM	4.3
CC(C)(O)c1ncc(C(Cc2cc[n+]([O-])cc2)c2ccc(OC(F)F)c(OC3CCC3)c2)s1 (stereo not given)	nM	0.5
CC(C)(O)c1ccc(C(Cc2ccc[n+]([O-])c2)c2ccc(OC(F)F)c(OC3CC3)c2)cn1 (single isomer, unassigned; (-)2d)	nM	334

Cited source: ChEMBL document CHEMBL1145790
